- System: MDA-MB-231
- experimentalDetails: Antiproliferative activity against human MDA-MB-231 cells assessed as growth inhibition after 48 hrs by SRB assay
- Type: functional
- conditionContext: MDA-MB-231, 48 h, read-out: GI50
Each entry below lists one item and its recorded GI50 value.

Reference set, count: 3
smilesrepr=COc1cc(OC)c(-c2nc3ccccc3c(=O)n2C/C=C/c2ccc(-c3cnc4ccccc4n3)cc2)c(OC)c1 measuredproperty=GI50 datavalue="< 10 nM"
smilesrepr=COc1ccc(-c2nc3ccccc3c(=O)n2C/C=C/c2ccc(-c3cnc4ccccc4n3)cc2)c(OC)c1 measuredproperty=GI50 datavalue="< 10 nM"
smilesrepr=COc1ccc(-c2nc3ccccc3c(=O)n2C/C=C/c2ccc(-c3cnc4ccccc4n3)cc2)c(F)c1 measuredproperty=GI50 datavalue="< 10 nM"

Now consider the entry below.
# molecule `CCOc1ccc(-c2nc3ccccc3c(=O)n2C/C=C/c2ccc(-c3cnc4ccccc4n3)cc2)cc1` ; its GI50 = > 100000 nM
